assay: xn = mol fraction of the nth substance listed, in the solute-free solvent; conditions: 303.15 K; x2 = 0.2

[
  {
    "MOLECULE": "CCOC(=O)OC1=C(c2cc(C)ccc2C)C(=O)NC12CCC(OC)CC2 (stereo not given) + CC(C)=O + O",
    "solubility (g/100 g solution)": 1.78
  },
  {
    "MOLECULE": "CCOc1ccccc1C(N)=O + CC#N + CC(C)O",
    "solubility (g/100 g solution)": 6.58
  },
  {
    "MOLECULE": "CCOC(=O)OC1=C(c2cc(C)ccc2C)C(=O)NC12CCC(OC)CC2 (stereo not given) + CO + O",
    "solubility (g/100 g solution)": 0.0409
  },
  {
    "MOLECULE": "NC(=O)NC1NC(=O)NC1=O (stereo not given) + O + CO",
    "solubility (g/100 g solution)": 0.134
  },
  {
    "MOLECULE": "Cl.NC(Cc1ccccc1)C(=O)OCc1ccccc1 (stereo not given) + CO + CC(C)=O",
    "solubility (g/100 g solution)": 0.778
  }
]
